Values compiled from paper PMC12702928.

TEST: Pharmacokinetic study in rodents (non-compartmental analysis)
Assay type: in vivo, Wistar rats
CONDITION DETAILS: male, Wistar, rat, plasma, iv, 2 mg/kg, Intravenous 2 mg/kg
PROPERTY: half-life (h)
Record the value in h, omitting the unit from your answer.

Can you look up the measured half-life of COc1cc(/C=C/C(=O)CC(=O)/C=C/c2ccc(O)c(OC)c2)ccc1O for me?
1.77

====

TEST: Pharmacokinetic study in rodents (non-compartmental analysis)
Assay type: in vivo, Wistar rats
CONDITION DETAILS: male, Wistar, rat, plasma; Oral 6 mg/kg
PROPERTY: Cmax

Can you look up the measured Cmax of COc1cc(/C=C/C(=O)CC(=O)/C=C/c2ccc(O)c(OC)c2)ccc1O for me?
8.04 ng/mL
